System: SN12C renal
procedure.summary: NCI tumour cell line growth inhibition, 48 h
readout.label: TGI

Worked set:
COc1ccc(CNc2nc3ccccc3nc2C(=O)O)cc1OC	> 100 µM
O=S(=O)(Nc1nccs1)c1ccc(Nc2nc(-c3cccs3)nc3ccc(I)cc23)cc1	> 74.6 µM
COC(=O)[C@@H]1c2[nH]c3ccccc3c2C[C@@H]2c3ccccc3NC(=O)[C@@H]21	> 100 µM
O=C(Nc1cccc([N+](=O)[O-])c1)/C(=N\NC(=O)c1ccncc1)c1nc2ccc([N+](=O)[O-])cc2[nH]c1=O	> 100 µM

I would be grateful if you could share the reported TGI for CC(=O)Nc1ccc(C(=O)NN2C(=O)C(Cl)C2c2cc(Br)cc(Br)c2O)cc1 (stereo not drawn) . > 100 µM

I would be grateful if you could share the reported TGI for Cc1ccc(S(=O)(=O)C2=C([Si](C)(C)C)C3CC2[C@@H]2C4C=CC(CC4)[C@H]32)cc1 (stereo partly drawn) . > 100 µM

I would be grateful if you could share the reported TGI for COc1cc2c(cc1OCCCC(=O)Nc1cc(C(=O)Nc3cc(C(=O)Nc4cc(C(=O)NCCCN(C)C)n(C)n4)n(C)c3)n(C)c1)N=CC1CCCN1C2=O (stereo not drawn) . 51.3 µM

I would be grateful if you could share the reported TGI for C=C1C(=O)C23CC1CCC2C12CO[C@H](O)[C@H]1C(C)(C)[C@H](OC(C)=O)C[C@H]2OC3=O (stereo partly drawn) . 46.2 µM

I would be grateful if you could share the reported TGI for COC(=O)C(/C(=N/NC(N)=O)C(=O)Nc1c(C)cccc1C(C)(C)C)c1nc2ccc(Cl)cc2[nH]c1=O (stereo not drawn) . > 100 µM

I would be grateful if you could share the reported TGI for CCC(C)C1NC(=O)C(NC(=O)C(CC(C)C)N(C)C(=O)[C@@H]2C=CCN2C(=O)[C@H](C)O)C(C)OC(=O)[C@H](Cc2ccc(OC)cc2)N(C)C(=O)[C@@H]2CCCN2C(=O)[C@H](CC(C)C)NC(=O)C(C)C(=O)[C@H](C(C)C)OC(=O)CC1O (stereo partly drawn) . 0.015 µM

I would be grateful if you could share the reported TGI for O=C1OC(Cl)C(N=P(c2ccccc2)(c2ccccc2)c2ccccc2)=C1Cl (stereo not drawn) . > 100 µM

I would be grateful if you could share the reported TGI for `O=C1/C(=C/c2ccc(Cl)cc2)N=C(c2ccccc2)N1c1nc2ccc(Sc3ccccc3)cc2[nH]1` . > 100 µM

I would be grateful if you could share the reported TGI for `CCOC(=O)c1ccc(C(=O)/C(C#N)=C2\CCCN2)n1C` . > 100 µM

I would be grateful if you could share the reported TGI for COc1ccc2c(c1OC)C(=O)OC2C1c2c(c(N)c3c(c2OC)OCO3)CCN1C (stereo not drawn) . 21.9 µM

I would be grateful if you could share the reported TGI for `COc1cc(-c2cc(-c3nc4ccc(F)cc4[nH]3)[nH]n2)cc(OC)c1OC` . 12.9 µM

I would be grateful if you could share the reported TGI for O=C1NC(N/N=C\C(O)C(O)C(O)C(O)CO)=N/C1=C\c1ccc(Cl)cc1 (stereo not drawn) . 15.3 µM

The measurements presented in this section are drawn from PubChem BioAssay (NCI).
